Listed below: Plant response rating, Soybean values for each entry.
test system: soybean; test: Test C postemergence; assay type: in vivo, Glycine max; conditions: Postemergence, 500 g ai/ha, 10 days, visual 0 to 100 scale (0 no effect, 100 complete control)
Lab note: record the figure alone, no unit after it.

Worked examples, 3 molecules total:
# SMILES REPRESENTATION, Plant response rating, Soybean
rows = [
    ("CCc1c(C)cc(-n2cnc(C(C)C)n2)cc1C(=O)N1C[C@H](C)Oc2c(Cl)cccc21", 40),
    ("CC(C)c1ncn(-c2cc3c(c(C(=O)N4C[C@H](C)Oc5c(Cl)cccc54)c2)OCCCO3)n1", 100),
    ("COc1ccc(-n2cncn2)cc1C(=O)N1C[C@H](C)Oc2ccccc21", 100),
]

Could you now look at the following molecule, please?
Query :: Provide Plant response rating, Soybean value for the following molecule: C[C@H]1CN(C(=O)c2cccc(-c3ncccn3)c2)c2cccc(Cl)c2O1
Result :: 100
